# Tested on: P-glycoprotein (PgP)
# METHOD_NOTES: P-glycoprotein (PgP) binding: MTT with and without cyclosporin A
# Assay type: cell-based, rat
# MEASUREMENT_SETUP: H4IIE 24 HR, MTT, 50 μM, with cyclosporin A
I'd appreciate it if you could supply % Control (Compound + CSA) values for the items below.
One number for each entry, in %.

Here's what some known entries look like.
COMPOUND	% Control (Compound + CSA) [%]
CC(=O)[C@]1(O)Cc2c(O)c3c(c(O)c2[C@@H](O[C@H]2C[C@H](N)[C@H](O)[C@H](C)O2)C1)C(=O)c1ccccc1C3=O	0.0
COc1cccc2c1C(=O)c1c(O)c3c(c(O)c1C2=O)C[C@@](O)(C(=O)CO)C[C@@H]3O[C@H]1C[C@H](N)[C@@H](O)[C@H](C)O1 [EPIRUBICIN, epirubicin]	11.8
C=C(C)[C@H]1Cc2c(ccc3c2O[C@@H]2COc4cc(OC)c(OC)cc4[C@@H]2C3=O)O1	0.0
CC(C)c1nc(CN(C)C(=O)N[C@H](C(=O)N[C@@H](Cc2ccccc2)C[C@H](O)[C@H](Cc2ccccc2)NC(=O)OCc2cncs2)C(C)C)cs1	81.5
CC(C)(C)NC(=O)[C@@H]1CN(Cc2cccnc2)CCN1C[C@@H](O)C[C@@H](Cc1ccccc1)C(=O)N[C@H]1c2ccccc2C[C@H]1O	91.3

With those in mind, consider the next compound.
[Q] # get_value(readout= % Control (Compound + CSA), system= P-glycoprotein (PgP)) for CC(C)Nc1cccnc1N1CCN(C(=O)c2cc3cc(NS(C)(=O)=O)ccc3[nH]2)CC1
[A] 62.3
